Numbers sourced from ChEMBL document CHEMBL1150114.

Form field: IC50 (one value per entry).
System: KB
Assay text: Cytotoxicity against human KB cells after 72 hrs by MTT assay
Type: functional, cell-based
Numeric only. Scale: µg/mL

INPUT: Find the measured IC50: item C[C@]12CC[C@H](O)C[C@H]1CC[C@@H]1[C@@H]2CC[C@]2(C)[C@@H](c3ccc(=O)oc3)C[C@H]3O[C@]132 , target or system KB.
OUTPUT: 1.34

* * *

System: KB
Assay text: Cytotoxicity against human KB cells after 72 hrs by MTT assay
Assay type: functional, cell-based
Readout name: IC50 (µg/mL)
Numeric only. Scale: µg/mL

Some solved cases for reference:
>>> test_result("C[C@]12CC[C@H](O)C[C@H]1CC[C@@H]1[C@@H]2CC[C@]2(C)[C@@H]([C@@]34C=CC(=O)O[C@@H]3O4)C[C@H]3O[C@]132")
10.9
>>> test_result("C[C@]12CCC(=O)C[C@H]1CC[C@@H]1[C@@H]2CC[C@]2(C)[C@@H]([C@@]34C=CC(=O)O[C@@H]3O4)C[C@H]3O[C@]132")
18.5

Moving on to another compound below.
INPUT: What IC50 value was documented for this compound, C[C@]12CC[C@H](O)C[C@H]1CC[C@@H]1[C@@H]2CC[C@]2(C)[C@@H]([C@]34C=CC(=O)O[C@H]3O4)C[C@H]3O[C@]132 ?
OUTPUT: 8.09
